Listed molecules paired with reported GI50
- Tested on: RXF 393 renal
- PROCEDURE SUMMARY: NCI tumour cell line growth inhibition, 48 h

- ENTRY SMILES: "Cc1cc(N2CCOCC2)cc2[nH]c(-c3c(NC[C@@H](O)c4cccc(Cl)c4)cc[nH]c3=O)nc12"
  GI50: "567 nM"
- ENTRY SMILES: "O=C(/C=C/c1ccc(C(F)(F)F)cc1)c1ccc(Nc2nc(NCCO)nc(Nc3ccc(Cl)cc3)n2)cc1"
  GI50: "1820 nM"
- ENTRY SMILES: "S=P(N1CC1)(N1CC1)N1CC1"
  GI50: "18800 nM"
- ENTRY SMILES: "CCN1CCN(CC(=O)N2c3cccc4cccc(c34)N(C(=O)CN3CCN(CC)CC3)C2c2cn(-c3ccccc3)nc2-c2cccc([N+](=O)[O-])c2)CC1"
  GI50: "1620 nM"
